molecular target: Bifunctional epoxide hydrolase 2 (Homo sapiens, UniProt P34913); assay: Inhibition of recombinant human sEH expressed in baculovirus expression system using CMNPC as substrate preincubated for 5 mins followed by substrate addition measured for 10 mins by fluorescent based assay
Sequence (P34913 whole entry): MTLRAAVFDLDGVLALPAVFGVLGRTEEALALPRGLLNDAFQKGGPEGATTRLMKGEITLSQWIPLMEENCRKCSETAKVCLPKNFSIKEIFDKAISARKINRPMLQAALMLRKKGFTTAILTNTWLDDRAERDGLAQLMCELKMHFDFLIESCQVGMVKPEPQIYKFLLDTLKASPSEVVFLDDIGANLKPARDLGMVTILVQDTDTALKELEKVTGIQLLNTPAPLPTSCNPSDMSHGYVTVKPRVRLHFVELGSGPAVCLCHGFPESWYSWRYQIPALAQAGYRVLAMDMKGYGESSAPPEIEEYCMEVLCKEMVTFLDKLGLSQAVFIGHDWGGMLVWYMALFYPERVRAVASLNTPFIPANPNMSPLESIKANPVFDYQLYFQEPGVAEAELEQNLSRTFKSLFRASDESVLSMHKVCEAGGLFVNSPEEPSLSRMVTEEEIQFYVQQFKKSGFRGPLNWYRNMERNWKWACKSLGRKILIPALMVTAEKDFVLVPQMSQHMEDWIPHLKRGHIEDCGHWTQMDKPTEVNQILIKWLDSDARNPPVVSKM
pIC50: −log10 of the molar value.
observable: pIC50

Example entries begin here.
S=C(NCC12CC3CC(CC(C3)C1)C2)NC1C2CC3CC(C2)CC1C3 (centres undefined)	6.04
S=C(Nc1ccc(C23CC4CC(CC(C4)C2)C3)cc1)NC1C2CC3CC(C2)CC1C3 (centres undefined)	5.23

(P) S=C(NCC12CC3CC(CC(C3)C1)C2)NC12CC3CC(CC(C3)C1)C2
(Q) CC(NC(=S)Nc1ccc(F)cc1)C12CC3CC(CC(C3)C1)C2 (centres undefined)
(Q) Hey, between P and Q which has a smaller measured pIC50? Write down the label of the entry you select.
(A) Q
(Q: 5.96, P: 7.68)
